- Study system: CDK2 (Homo sapiens)
- Construct: purchased Carna Company
- Protocol: CDK enzymology experiment in vitro, capillary mobility shift assay (MSA)
- Type: biochemical
- Cond: read-out: CDK2 (nM) inhibitory IC50
Observed property: IC50

// known answers, use as guide
| Compound | IC50 |
| --- | --- |
| Cn1cc(S(=O)(=O)N2CCC(Nc3ncc(C(F)(F)F)c(O[C@@H]4COC[C@@H]4O)n3)CC2)cn1 (relative stereo) | 2.5 to 10 nM |
| O=S(=O)(c1cccc(N2CCNCC2)c1)N1CCC(Nc2ncc(C(F)(F)F)c(O[C@H]3CCOC3)n2)CC1 | < 0.5 nM |
| N#Cc1cnc(NC2CCN(S(=O)(=O)c3ccc(Br)cc3)CC2)nc1N[C@H]1CCOC1 | 10 to 50 nM |

Here's the next entry for you.
Test item `CS(=O)(=O)N1CCC(Nc2ncc(C#N)c(NC3CCCC3)n2)CC1` ; CDK2 (Homo sapiens); reported IC50 was 10 to 50 nM
